- measurementNotes: MRT(0 to infinity) in Sprague-Dawley rat at 20 mg/kg, po by LC-MS/MS analysis
- Type: ADME, organism-based
- assayConditions: in vivo

- chemicalStructure: "C=CCNC(=S)Nc1cc(C(=O)Nc2ccc(F)c(C)c2)c(C)cc1F"
  MRT inf, h: 3.26

----------
- measurementNotes: Cytotoxicity against human HePAD38 cells assessed as reduction in cell viability incubated for 72 hrs by CCK8 assay
- Assay type: toxicity, cell-based

- chemicalStructure: "Cc1cc(NC(=O)c2cc(NC(=S)NCc3ccc(B(O)O)cc3)c(F)cc2Br)ccc1F"
  unitText: "µM"
  CC50 at 72 h: 3.08
- chemicalStructure: "Cc1cc(NC(=O)c2cc(NC(=O)c3ccc(C#N)cc3)c(F)cc2Br)ccc1F"
  unitText: "µM"
  CC50 at 72 h: 85.7
- chemicalStructure: "Cc1cc(NC(=O)c2cc(NC(=O)Nc3ccc(C(F)(F)F)cc3)c(F)cc2Br)ccc1F"
  unitText: "µM"
  CC50 at 72 h: 3.5
- chemicalStructure: "Cc1cc(NC(=O)c2cc(NC(=O)NC3CCCC3)c(F)cc2Br)ccc1F"
  unitText: "µM"
  CC50 at 72 h: 5.52
- chemicalStructure: "Cc1cc(NC(=O)c2cc(NC(=O)NCc3ccc(F)cc3)c(F)cc2Br)ccc1F"
  unitText: "µM"
  CC50 at 72 h: 18.5
- chemicalStructure: "Cc1cc(NC(=O)c2cc(NC(=O)C(=O)NC3CCCC3)c(F)cc2Br)ccc1F"
  unitText: "µM"
  CC50 at 72 h: 17.4
- chemicalStructure: "Cc1cc(NC(=O)c2cc(NC(=O)NCc3cc(F)c(F)c(F)c3)c(F)cc2Br)ccc1F"
  unitText: "µM"
  CC50 at 72 h: 3.69
- chemicalStructure: "Cc1cc(NC(=O)c2cc(NC(=O)NCc3cc(F)cc(F)c3)c(F)cc2Br)ccc1F"
  unitText: "µM"
  CC50 at 72 h: 3.72
- chemicalStructure: "CCN(CC)S(=O)(=O)c1cc(C(=O)Nc2cc(F)c(F)c(F)c2)c(Br)cc1F"
  unitText: "µM"
  CC50 at 72 h: 4.47

----------
- measurementNotes: Cytotoxicity against human HePAD38 cells assessed as reduction in cell viability incubated for 72 hrs by CCK8 assay
- Type: toxicity, cell-based
recordedMetric: CC50 at 72 h (µM)

- chemicalStructure: "Cc1cc(NC(=O)c2cc(NC(=O)c3ccc(Br)cc3)c(F)cc2Br)ccc1F"
  recordedMetric: "CC50 at 72 h"
  inequalityOperator: "="
  observedValue: 2.4
- chemicalStructure: "Cc1cc(NC(=O)c2cc(NC(=O)NC(C)C)c(F)cc2Br)ccc1F"
  recordedMetric: "CC50 at 72 h"
  inequalityOperator: "="
  observedValue: 19.1
- chemicalStructure: "Cc1cc(CNC(=O)Nc2cc(C(=O)Nc3ccc(F)c(C)c3)c(Br)cc2F)ccc1F"
  recordedMetric: "CC50 at 72 h"
  inequalityOperator: "="
  observedValue: 3.28
- chemicalStructure: "C/C=C/C(=O)Nc1cc(C(=O)Nc2ccc(F)c(C)c2)c(Br)cc1F"
  recordedMetric: "CC50 at 72 h"
  inequalityOperator: "="
  observedValue: 28.5
- chemicalStructure: "Cc1cc(NC(=O)c2cc(NC(=O)c3cc(F)c(F)c(F)c3)c(F)cc2Br)ccc1F"
  recordedMetric: "CC50 at 72 h"
  inequalityOperator: "="
  observedValue: 18.1
- chemicalStructure: "O=C(Nc1ccc(F)c(C(F)(F)F)c1)c1cc(S(=O)(=O)N[C@H]2CCOC2)c(F)cc1Br"
  recordedMetric: "CC50 at 72 h"
  inequalityOperator: ">"
  observedValue: 100
- chemicalStructure: "Cc1cc(NC(=O)c2cc(NC(=O)NCc3cccnc3)c(F)cc2Br)ccc1F"
  recordedMetric: "CC50 at 72 h"
  inequalityOperator: ">"
  observedValue: 100
- chemicalStructure: "Cc1cc(NC(=O)c2cc(NC(=O)C3CC3)c(F)cc2Br)ccc1F"
  recordedMetric: "CC50 at 72 h"
  inequalityOperator: "="
  observedValue: 84
- chemicalStructure: "C=CCNC(=S)Nc1cc(C(=O)Nc2ccc(F)c(C)c2)c(C)cc1F"
  recordedMetric: "CC50 at 72 h"
  inequalityOperator: "="
  observedValue: 26.6
- chemicalStructure: "Cc1cc(NC(=O)c2cc(NC(=O)c3cccs3)c(F)cc2Br)ccc1F"
  recordedMetric: "CC50 at 72 h"
  inequalityOperator: "="
  observedValue: 85.1
- chemicalStructure: "COCCC(=O)Nc1cc(C(=O)Nc2ccc(F)c(C)c2)c(Br)cc1F"
  recordedMetric: "CC50 at 72 h"
  inequalityOperator: "="
  observedValue: 97.4
- chemicalStructure: "Cc1cc(NC(=O)c2cc(NC(=O)c3ccc(F)cc3)c(F)cc2Br)ccc1F"
  recordedMetric: "CC50 at 72 h"
  inequalityOperator: "="
  observedValue: 1.19
- chemicalStructure: "O=C(Nc1cc(F)c(F)c(F)c1)c1cc(S(=O)(=O)N[C@H]2CCOC2)c(F)cc1Br"
  recordedMetric: "CC50 at 72 h"
  inequalityOperator: "="
  observedValue: 88.2
- chemicalStructure: "CCOC(=O)C1=C(CN2CCOCC2)NC(c2nccs2)=N[C@H]1c1ccc(C)cc1Br"
  recordedMetric: "CC50 at 72 h"
  inequalityOperator: ">"
  observedValue: 100
- chemicalStructure: "Cc1cc(NC(=O)c2cc(NC(=O)C3CCC3)c(F)cc2Br)ccc1F"
  recordedMetric: "CC50 at 72 h"
  inequalityOperator: "="
  observedValue: 79.6
- chemicalStructure: "Cc1cc(NC(=O)c2cc(S(=O)(=O)NC3CCCC3)c(F)cc2Br)ccc1F"
  recordedMetric: "CC50 at 72 h"
  inequalityOperator: ">"
  observedValue: 100
- chemicalStructure: "Cc1cc(NC(=O)c2cc(NC(=S)NCc3cc(F)cc(F)c3)c(F)cc2Br)ccc1F"
  recordedMetric: "CC50 at 72 h"
  inequalityOperator: "="
  observedValue: 3.61
- chemicalStructure: "Cc1cc(NC(=O)c2cc(NC(=O)Nc3cc(F)c(F)c(F)c3)c(F)cc2Br)ccc1F"
  recordedMetric: "CC50 at 72 h"
  inequalityOperator: "="
  observedValue: 2.59
- chemicalStructure: "N#Cc1cc(NC(=O)c2cc(S(=O)(=O)N[C@H]3CCOC3)c(F)cc2Br)ccc1F"
  recordedMetric: "CC50 at 72 h"
  inequalityOperator: ">"
  observedValue: 100
- chemicalStructure: "O=C(Nc1ccc(F)c(Cl)c1)c1cc(S(=O)(=O)N[C@H]2CCOC2)c(F)cc1Br"
  recordedMetric: "CC50 at 72 h"
  inequalityOperator: "="
  observedValue: 20.6
